Value source: patent US20100311729A1

biological target: PI3K beta (Homo sapiens); construct: for the full-length p110-b subunit are generated and fused by overlapping PCR; His tag (C); Tn5 (Trichoplusia ni) or TiniPro insect cells; experiment: PI3 kinase assay (Kinase-Glo luminescence), PI3K beta; settings: Enzymatic Data; read-out: PI3K beta IC50 [umol]
pIC50: −log10 of the molar value.
The threshold is inclusive: pIC50 of exactly 6 counts as Satisfied; values below receive Not satisfied.

The examples below pair each entry with its known result.
# molecule, discrete_label
data = [
    ("COc1cc(-c2cnc3ccc(-c4cnc(N)c(C(F)(F)F)c4)nn23)ccc1C(=O)NCCCN1CCOCC1 [Example 125]", "Satisfied"),
    ("Nc1ncc(-c2cnc3ccc(-c4ccc(OCCN5CCCC5=O)c(F)c4)nn23)cc1C(F)(F)F [Example 94]", "Satisfied"),
    ("Nc1ncc(-c2ccc3ncc(-c4ccc(C(=O)N5CCN(CCN6CCOCC6)CC5)c(F)c4)n3n2)cc1C(F)(F)F [Example 106]", "Not satisfied"),
]

Query: Has Nc1ncc(-c2ccc3ncc(-c4ccc(C(=O)N5CCN(CCc6ccccn6)CC5)cc4)n3n2)cc1C(F)(F)F [Example 135] a recorded pIC50 greater than or equal to 6?
Result: Satisfied

Query: Has CN(C)CCN1CCN(C(=O)c2ccc(-c3cnc4ccc(-c5cnc(N)c(C(F)(F)F)c5)nn34)cc2F)CC1 [Example 107] a recorded pIC50 greater than or equal to 6?
Result: Satisfied

Query: Has COc1ccccc1-c1ccn2ncc(-c3ccc(C(N)=O)cc3)c2n1 [Example 179] a recorded pIC50 greater than or equal to 6?
Result: Not satisfied

Query: Has Nc1ncc(-c2cnc3ccc(-c4ccc(OCCCN5CCCC5=O)cc4)nn23)cc1C(F)(F)F [Example 89] a recorded pIC50 greater than or equal to 6?
Result: Not satisfied

Query: Has CCN(CC)CCn1cnc2cc(-c3cnc4ccc(-c5cnc(N)c(C(F)(F)F)c5)nn34)cnc21 [Example 149] a recorded pIC50 greater than or equal to 6?
Result: Satisfied

Query: Has Nc1ncc(-c2ccc3ncc(-c4ccc(S(N)(=O)=O)cc4)n3n2)cc1C(F)(F)F [Example 121] a recorded pIC50 greater than or equal to 6?
Result: Satisfied

* * *

target: PI3K beta (Homo sapiens, UniProt P42338); construct: for the full-length p110-b subunit are generated and fused by overlapping PCR; His tag (C); Tn5 (Trichoplusia ni) or TiniPro insect cells; test: PI3 kinase assay (Kinase-Glo luminescence), PI3K beta; conditions: Enzymatic Data; read-out: PI3K beta IC50 [umol]
Sequence (P42338 with tags, fused parts or gaps limits assumed): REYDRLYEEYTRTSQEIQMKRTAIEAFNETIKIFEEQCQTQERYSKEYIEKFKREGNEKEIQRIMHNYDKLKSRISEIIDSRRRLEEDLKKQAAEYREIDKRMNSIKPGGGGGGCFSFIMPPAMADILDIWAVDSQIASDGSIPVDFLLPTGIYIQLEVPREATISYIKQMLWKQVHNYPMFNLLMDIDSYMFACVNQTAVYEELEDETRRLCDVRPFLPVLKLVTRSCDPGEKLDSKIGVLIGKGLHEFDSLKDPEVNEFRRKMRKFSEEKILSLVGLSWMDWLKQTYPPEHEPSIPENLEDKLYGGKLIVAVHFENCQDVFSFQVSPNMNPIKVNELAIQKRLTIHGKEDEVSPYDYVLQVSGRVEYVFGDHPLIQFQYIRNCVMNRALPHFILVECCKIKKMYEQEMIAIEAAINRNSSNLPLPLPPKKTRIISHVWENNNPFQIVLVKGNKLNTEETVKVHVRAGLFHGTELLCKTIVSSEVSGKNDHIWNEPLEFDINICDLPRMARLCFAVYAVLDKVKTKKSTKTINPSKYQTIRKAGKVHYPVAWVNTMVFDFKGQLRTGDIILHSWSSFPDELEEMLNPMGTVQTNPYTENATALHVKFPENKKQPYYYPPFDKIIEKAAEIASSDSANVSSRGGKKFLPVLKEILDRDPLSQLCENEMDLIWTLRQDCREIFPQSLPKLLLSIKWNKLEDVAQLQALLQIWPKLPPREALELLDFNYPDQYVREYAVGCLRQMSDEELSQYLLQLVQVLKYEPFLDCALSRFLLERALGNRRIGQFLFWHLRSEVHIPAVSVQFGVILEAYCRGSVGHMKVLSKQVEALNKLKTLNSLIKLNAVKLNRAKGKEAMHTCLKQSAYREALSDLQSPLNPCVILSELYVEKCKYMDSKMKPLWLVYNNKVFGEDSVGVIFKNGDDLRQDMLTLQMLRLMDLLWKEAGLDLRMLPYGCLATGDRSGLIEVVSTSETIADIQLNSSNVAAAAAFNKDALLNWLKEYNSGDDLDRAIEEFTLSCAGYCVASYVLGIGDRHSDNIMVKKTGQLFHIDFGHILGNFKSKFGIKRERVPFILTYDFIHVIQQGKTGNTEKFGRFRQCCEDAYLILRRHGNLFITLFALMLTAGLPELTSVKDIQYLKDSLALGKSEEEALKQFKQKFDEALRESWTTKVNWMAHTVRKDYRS
Consider the cut-off 0.2 µM. If the recorded IC50 is strictly smaller, the label is condition met; if not, the label is condition not met.

The examples below pair each entry with its known result.
# compound_string, discrete_label
data = [
    ("COc1cc(-c2ccc3ncc(-c4cnc(N)c(C(F)(F)F)c4)n3n2)ccc1OCCCN1CCNC1=O", "condition met"),
    ("Nc1ncc(-c2ccc3ncc(-c4ccc(OCCCNC(=O)C5CC5)cc4)n3n2)cc1C(F)(F)F", "condition not met"),
    ("CNS(=O)(=O)c1ccc(-c2cnc3ccc(-c4cnc(N)c(C(F)(F)F)c4)nn23)cc1", "condition met"),
    ("COC(=O)NC1(COc2ccc(-c3ccc4ncc(-c5cnc(N)c(C(F)(F)F)c5)n4n3)cc2)COC1", "condition not met"),
    ("Nc1ncc(-c2ccc3ncc(-c4ccc(C(=O)NCCN5CCS(=O)(=O)CC5)cc4)n3n2)cc1C(F)(F)F", "condition met"),
]

Query: Does the reported IC50 of the following molecule sit strictly below 0.2 µM? CCS(=O)(=O)c1ccc(-c2cnc3ccc(-c4cnc(N)c(C(F)(F)F)c4)nn23)cc1
Result: condition not met

Query: Does the reported IC50 of the following molecule sit strictly below 0.2 µM? COc1ccc(-c2ccc3ncc(-c4cnc(N)c(C(F)(F)F)c4)n3n2)cc1F
Result: condition not met

Query: Does the reported IC50 of the following molecule sit strictly below 0.2 µM? Nc1ncc(-c2ccc3ncc(-c4ccc(S(=O)(=O)CCN5CCOCC5)cc4)n3n2)cc1C(F)(F)F
Result: condition not met

Query: Does the reported IC50 of the following molecule sit strictly below 0.2 µM? COc1cc(-c2cnc3ccc(-c4cnc(N)c(C(F)(F)F)c4)nn23)ccc1C(=O)N1CCN(Cc2cccnc2)CC1
Result: condition not met

Query: Does the reported IC50 of the following molecule sit strictly below 0.2 µM? COc1cc(-c2cnc3ccc(-c4cnc(N)c(C(F)(F)F)c4)nn23)ccc1C(=O)N1CCN(c2ccccn2)CC1
Result: condition not met

Query: Does the reported IC50 of the following molecule sit strictly below 0.2 µM? COc1cc(-c2ccc3ncc(-c4cnc(N)c(C(F)(F)F)c4)n3n2)ccc1OCCNC(=O)C(C)C
Result: condition not met

Query: Does the reported IC50 of the following molecule sit strictly below 0.2 µM? COc1cc(-c2cnc3ccc(-c4cnc(N)c(C(F)(F)F)c4)nn23)ccc1C(=O)N1CCN(CC(=O)N2CCOCC2)CC1
Result: condition met

* * *

measure_name: melting point

# compound_string, result
measured = [
    ("Nc1ncc(-c2ccc3ncc(-c4ccc(CN5CCC(C(=O)N6CCCCCC6)CC5)cc4)n3n2)cc1C(F)(F)F", "249 to 252 °C"),
    ("Nc1ncc(-c2ccc3ncc(-c4ccc(CN5CCC(C(=O)N6CCCC6)CC5)cc4)n3n2)cc1C(F)(F)F", "209 to 211 °C"),
    ("Nc1ncc(-c2cnc3ccc(-c4ccc(OCC5(N)COC5)cc4)nn23)cc1C(F)(F)F", "198 to 200 °C"),
    ("Nc1ncc(-c2ccc3ncc(-c4ccc(CN5CCC(C(=O)N6CCCCC6)CC5)cc4)n3n2)cc1C(F)(F)F", "263 to 266 °C"),
    ("Nc1ncc(-c2ccc3ncc(-c4ccc(CO)cc4)n3n2)cc1C(F)(F)F", "290 to 292 °C"),
    ("CC(C)C(=O)NCC1(COc2ccc(-c3ccc4ncc(-c5cnc(N)c(C(F)(F)F)c5)n4n3)cc2)COC1", "205 to 207 °C"),
]

Sample COC(=O)NCC1(COc2ccc(-c3ccc4ncc(-c5cnc(N)c(C(F)(F)F)c5)n4n3)cc2)COC1 ; melting point observed: 179 to 181 °C

Sample Nc1ncc(-c2cnc3ccc(-c4ccc(OCC5(CNC(=O)C6CC6)COC5)cc4)nn23)cc1C(F)(F)F ; melting point observed: 223 to 225 °C

Sample COC(=O)NC1(COc2ccc(-c3ccc4ncc(-c5cnc(N)c(C(F)(F)F)c5)n4n3)cc2)COC1 ; melting point observed: 220 to 222 °C

Sample COc1ccc(-c2cnn3ccc(-c4ccc(OCCCNC(=O)OC(C)(C)C)c(OC)c4)nc23)cc1OC ; melting point observed: 131 to 133 °C

* * *

biological target: PI3K beta (Homo sapiens); construct: for the full-length p110-b subunit are generated and fused by overlapping PCR; His tag (C); Tn5 (Trichoplusia ni) or TiniPro insect cells; experiment: PI3 kinase assay (Kinase-Glo luminescence), PI3K beta; conditions: Enzymatic Data; read-out: PI3K beta IC50 [umol]
measure_name: pIC50
Scale explanation: pIC50 corresponds to minus log10 of a concentration expressed in moles per litre.

# compound_string, pIC50
rows = [
    ("Nc1ncc(-c2ccc3ncc(-c4ccc(OCCn5cccn5)cc4)n3n2)cc1C(F)(F)F", 6.00),
    ("COc1cc(-c2ccc3ncc(-c4ccc(S(=O)(=O)CCN5CCOCC5)cc4)n3n2)ccc1OCCN1CCCC1=O", 5.12),
    ("COc1cc(-c2cnc3ccc(-c4cnc(N)c(C(F)(F)F)c4)nn23)ccc1C(=O)NCCN1CCOCC1", 7.11),
]

Sample Nc1ncc(-c2ccc3ncc(-c4ccc(S(=O)(=O)N5CCOCC5)cc4)n3n2)cc1C(F)(F)F ; pIC50 observed: 5.90

* * *

target: PI3K delta (Homo sapiens); construct: for the full-length p110-d subunit are generated and fused by overlapping PCR; His tag (C); Tn5 (Trichoplusia ni) or TiniPro insect cells; assay: PI3 kinase assay (Kinase-Glo luminescence), PI3K delta; conditions: Enzymatic Data; read-out: PI3K delta IC50 [umol]
Sequence (O00329 with tags, fused parts or gaps limits assumed): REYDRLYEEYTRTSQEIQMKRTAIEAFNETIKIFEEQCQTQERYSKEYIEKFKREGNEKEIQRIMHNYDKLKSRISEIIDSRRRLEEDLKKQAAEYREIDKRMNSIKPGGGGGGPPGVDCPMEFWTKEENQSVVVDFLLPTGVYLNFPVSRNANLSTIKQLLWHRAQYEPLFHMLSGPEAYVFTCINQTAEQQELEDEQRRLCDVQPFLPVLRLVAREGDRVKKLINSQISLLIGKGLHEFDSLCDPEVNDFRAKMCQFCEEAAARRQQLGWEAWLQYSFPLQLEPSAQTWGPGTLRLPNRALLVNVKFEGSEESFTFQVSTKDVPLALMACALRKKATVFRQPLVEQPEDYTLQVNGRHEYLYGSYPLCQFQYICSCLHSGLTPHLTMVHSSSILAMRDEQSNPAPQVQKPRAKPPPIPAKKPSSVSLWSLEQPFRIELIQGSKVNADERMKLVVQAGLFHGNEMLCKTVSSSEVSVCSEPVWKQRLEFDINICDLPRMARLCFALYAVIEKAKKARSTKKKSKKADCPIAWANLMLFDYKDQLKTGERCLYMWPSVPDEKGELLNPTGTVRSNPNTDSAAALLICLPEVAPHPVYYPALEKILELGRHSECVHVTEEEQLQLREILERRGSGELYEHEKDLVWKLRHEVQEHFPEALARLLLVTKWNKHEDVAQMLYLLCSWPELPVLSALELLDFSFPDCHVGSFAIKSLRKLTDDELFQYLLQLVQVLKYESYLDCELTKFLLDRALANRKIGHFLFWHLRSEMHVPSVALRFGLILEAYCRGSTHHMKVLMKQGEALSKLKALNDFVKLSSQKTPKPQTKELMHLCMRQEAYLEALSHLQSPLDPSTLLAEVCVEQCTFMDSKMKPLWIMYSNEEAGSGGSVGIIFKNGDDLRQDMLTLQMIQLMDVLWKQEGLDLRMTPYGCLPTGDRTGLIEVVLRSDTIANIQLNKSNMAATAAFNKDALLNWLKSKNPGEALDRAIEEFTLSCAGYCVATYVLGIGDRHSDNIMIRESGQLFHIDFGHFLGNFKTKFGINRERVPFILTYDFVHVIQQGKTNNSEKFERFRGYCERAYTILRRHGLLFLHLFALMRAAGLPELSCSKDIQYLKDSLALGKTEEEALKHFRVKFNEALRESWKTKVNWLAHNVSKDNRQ
measure_name: IC50 (nM)
Numbers only; they are read as nM.

Solved cases below.
# compound_string, IC50, nM
measured = [
    ("c1cc2cc(-c3cnc4ccc(-c5ccc6c(c5)OCO6)nn34)cnc2[nH]1", 495),
    ("COc1cc(-c2ccc3ncc(-c4cnc(N)c(C(F)(F)F)c4)n3n2)ccc1OCCCNC(C)=O", 295),
    ("COc1cc(-c2cnc3ccc(-c4cnc(N)c(C(F)(F)F)c4)nn23)c(F)cc1C(=O)NCCCN1CCOCC1", 13),
    ("COc1cc(-c2ccc3ncc(-c4cnc5[nH]ccc5c4)n3n2)ccc1OCCN1CCCC1=O", 77),
    ("COc1cc(-c2ccc3ncc(-c4cnc(N)c(C(F)(F)F)c4)n3n2)ccc1OCCN1CCCC1=O", 11),
]

Sample COc1cc(-c2cnc3ccc(-c4cnc(N)c(C(F)(F)F)c4)nn23)c(F)cc1C(=O)NCCN1CCS(=O)(=O)CC1 ; IC50 observed: 39

Sample CNS(=O)(=O)c1ccc(-c2cnc3ccc(-c4cnc(N)c(C(F)(F)F)c4)nn23)cc1 ; IC50 observed: 171
